# System: Testis-specific serine/threonine-protein kinase 1 (Homo sapiens)
# Condition context: at 1 µM

| Structure notation | System | Units | residual activity |
| --- | --- | --- | --- |
| COc1ccc(OC)c2c(=S)c3ccccc3[nH]c12 | Testis-specific serine/threonine-protein kinase 1 (Homo sapiens) | % | 90 |
| CCN(CC)C(=O)c1ccc(Nc2nc(OCC3CCCCC3)c3nc[nH]c3n2)cc1 | Testis-specific serine/threonine-protein kinase 1 (Homo sapiens) | % | 14 |
| O=[N+]([O-])c1ccc(-c2nc(-c3ccc(F)cc3)c(-c3ccncc3)[nH]2)cc1 | Testis-specific serine/threonine-protein kinase 1 (Homo sapiens) | % | 97 |
| CC#CC(=O)Nc1cc2c(Nc3ccc(F)c(Cl)c3)ncnc2cn1 | Testis-specific serine/threonine-protein kinase 1 (Homo sapiens) | % | 98 |
| Oc1c2ccccc2c2c3c(cccc13)N=N2 | Testis-specific serine/threonine-protein kinase 1 (Homo sapiens) | % | 75 |
| NC(=O)c1ccc2[nH]c(-c3ccc(Oc4ccc(Cl)cc4)cc3)nc2c1 | Testis-specific serine/threonine-protein kinase 1 (Homo sapiens) | % | 101 |
| Oc1ccc(-c2nc(-c3ccc(F)cc3)c(-c3ccncc3)[nH]2)cc1 | Testis-specific serine/threonine-protein kinase 1 (Homo sapiens) | % | 112 |
| Cn1cc(/C=C2\C(=O)Nc3ccc(S(N)(=O)=O)cc32)c2ccccc21 | Testis-specific serine/threonine-protein kinase 1 (Homo sapiens) | % | 19 |
| Cc1nc2cc3nc(-c4cccs4)cnc3cc2n1C | Testis-specific serine/threonine-protein kinase 1 (Homo sapiens) | % | 102 |
| Cc1cncc2cccc(S(=O)(=O)N3CCCN(C(=O)CN)C[C@H]3C)c12 | Testis-specific serine/threonine-protein kinase 1 (Homo sapiens) | % | 95 |
| COc1cc2ncnc(Nc3ccc(Oc4ccccc4)cc3)c2cc1OC | Testis-specific serine/threonine-protein kinase 1 (Homo sapiens) | % | 95 |
| O=c1cc(-c2cccc3c2Sc2ccccc2S3)oc(N2CCOCC2)c1 | Testis-specific serine/threonine-protein kinase 1 (Homo sapiens) | % | 92 |
| CCN(CC)CCCCN1c2ccccc2Oc2ccc(Cl)cc21 | Testis-specific serine/threonine-protein kinase 1 (Homo sapiens) | % | 105 |
| Nc1n[nH]c2nnc(-c3c(-c4ccccc4)nn4ccccc34)cc12 | Testis-specific serine/threonine-protein kinase 1 (Homo sapiens) | % | 87 |
| N#CC(C#N)=C(N)/C(C#N)=C/c1ccc(O)cc1 | Testis-specific serine/threonine-protein kinase 1 (Homo sapiens) | % | 98 |
| Nc1nc(Nc2ccc(S(N)(=O)=O)cc2)nn1C(=S)Nc1c(F)cccc1F | Testis-specific serine/threonine-protein kinase 1 (Homo sapiens) | % | 16 |
| COc1cccc(-c2cc(=O)c3ccccc3o2)c1N | Testis-specific serine/threonine-protein kinase 1 (Homo sapiens) | % | 103 |
| CO[C@@H]1[C@H](N(C)C(=O)c2ccccc2)C[C@H]2O[C@]1(C)n1c3ccccc3c3c4c(c5c6ccccc6n2c5c31)C(=O)NC4 | Testis-specific serine/threonine-protein kinase 1 (Homo sapiens) | % | 15 |
| Cc1ccc(NC2=CC(=O)c3sc(C)nc3C2=O)cc1 | Testis-specific serine/threonine-protein kinase 1 (Homo sapiens) | % | 92 |
| CC(=O)c1ccc(N2CCOCC2)cc1O | Testis-specific serine/threonine-protein kinase 1 (Homo sapiens) | % | 98 |
| N#Cc1cnc2cnc(NCc3cccnc3)cc2c1Nc1ccc(F)c(Cl)c1 | Testis-specific serine/threonine-protein kinase 1 (Homo sapiens) | % | 0 |
| Cc1cc(Nc2nc(-c3ccccc3)nc3ccccc23)n[nH]1 | Testis-specific serine/threonine-protein kinase 1 (Homo sapiens) | % | 72 |
| Nc1cccc(-c2cc3c(Oc4cccc(O)c4)ncnc3[nH]2)c1 | Testis-specific serine/threonine-protein kinase 1 (Homo sapiens) | % | 101 |
| O=C1Nc2cc(Br)ccc2/C1=C1/Nc2ccccc2/C1=N\O | Testis-specific serine/threonine-protein kinase 1 (Homo sapiens) | % | 86 |
| O=c1c2ccccc2[nH]c(=S)n1CCN1CCC(=C(c2ccc(F)cc2)c2ccc(F)cc2)CC1 | Testis-specific serine/threonine-protein kinase 1 (Homo sapiens) | % | 101 |
| O=C(Nc1cccc(Nc2nccc(Nc3cccc(C(F)(F)F)c3)n2)c1)C1CC1 | Testis-specific serine/threonine-protein kinase 1 (Homo sapiens) | % | 94 |
| COc1cc2ncnc(N3CCN(C(=O)Nc4ccc(Oc5ccccc5)cc4)CC3)c2cc1OC | Testis-specific serine/threonine-protein kinase 1 (Homo sapiens) | % | 88 |
| O=C(Nc1cccc(Nc2cc(Nc3cccc(C(F)(F)F)c3)ncn2)c1)C1CC1 | Testis-specific serine/threonine-protein kinase 1 (Homo sapiens) | % | 101 |
| CNc1cc2c(Nc3cccc(Br)c3)ncnc2cn1 | Testis-specific serine/threonine-protein kinase 1 (Homo sapiens) | % | 93 |
| c1ccc2c(-c3ccncc3)c[nH]c2c1 | Testis-specific serine/threonine-protein kinase 1 (Homo sapiens) | % | 94 |
| CC(C)n1cnc2c(NCc3ccccc3)nc(NCCCO)nc21 | Testis-specific serine/threonine-protein kinase 1 (Homo sapiens) | % | 90 |
| O=C(O)c1ccc2c3c1cccc3c(=O)n1c3ccccc3nc21 | Testis-specific serine/threonine-protein kinase 1 (Homo sapiens) | % | 106 |
| COc1ccc(CNc2nc(N(CCO)CCO)nc3c2ncn3C(C)C)cc1 | Testis-specific serine/threonine-protein kinase 1 (Homo sapiens) | % | 86 |
| c1ccc(-c2n[nH]cc2-c2ccnc3ccccc23)nc1 | Testis-specific serine/threonine-protein kinase 1 (Homo sapiens) | % | 91 |
| Cc1nc(-c2ccccc2)c(-c2ccncc2)o1 | Testis-specific serine/threonine-protein kinase 1 (Homo sapiens) | % | 100 |
| CC(C)n1cnc2/c(=N/c3cccc(Cl)c3)nc(NCCO)[nH]c21 | Testis-specific serine/threonine-protein kinase 1 (Homo sapiens) | % | 94 |
| COc1ccc(S(=O)(=O)N(CCO)c2ccccc2CN(C)C/C=C/c2ccc(Cl)cc2)cc1 | Testis-specific serine/threonine-protein kinase 1 (Homo sapiens) | % | 97 |

* * *

Entries and their residual activity
# System: Inhibitor of nuclear factor kappa-B kinase subunit alpha (Homo sapiens)
# Condition context: at 10 µM
Readout kind: residual activity

| Structure notation | System | Measured value |
| --- | --- | --- |
| COc1ccc(S(=O)(=O)N(CCO)c2ccccc2CN(C)C/C=C/c2ccc(Cl)cc2)cc1 | Inhibitor of nuclear factor kappa-B kinase subunit alpha (Homo sapiens) | 108% |
| COc1cccc(-c2cc(=O)c3ccccc3o2)c1N | Inhibitor of nuclear factor kappa-B kinase subunit alpha (Homo sapiens) | 97% |
| Oc1ccc(-c2nc(-c3ccc(F)cc3)c(-c3ccncc3)[nH]2)cc1 | Inhibitor of nuclear factor kappa-B kinase subunit alpha (Homo sapiens) | 59% |
| Cn1nc2c3c(cccc31)C(=O)c1ccccc1-2 | Inhibitor of nuclear factor kappa-B kinase subunit alpha (Homo sapiens) | 82% |
| c1ccc(-c2n[nH]c3c2oc2ccccc23)cc1 | Inhibitor of nuclear factor kappa-B kinase subunit alpha (Homo sapiens) | 88% |
| Oc1n[nH]c2nnc(-c3c(-c4ccccc4)nn4ccccc34)cc12 | Inhibitor of nuclear factor kappa-B kinase subunit alpha (Homo sapiens) | 92% |
| Nc1ccc2ncnc(NCCc3ccc(Oc4ccccc4)cc3)c2c1 | Inhibitor of nuclear factor kappa-B kinase subunit alpha (Homo sapiens) | 101% |
| O=C1Nc2ccc(Br)cc2/C1=C\c1cc2c([nH]1)CCCC2 | Inhibitor of nuclear factor kappa-B kinase subunit alpha (Homo sapiens) | 115% |
| O=C1NC(=O)/C(=C\c2ccc3nccnc3c2)S1 | Inhibitor of nuclear factor kappa-B kinase subunit alpha (Homo sapiens) | 54% |
| N#CC(C#N)=C(N)/C(C#N)=C/c1ccc(O)cc1 | Inhibitor of nuclear factor kappa-B kinase subunit alpha (Homo sapiens) | 92% |
| O=C1NC(=O)c2cc(Nc3ccc(F)cc3)c(Nc3ccc(F)cc3)cc21 | Inhibitor of nuclear factor kappa-B kinase subunit alpha (Homo sapiens) | 113% |
| COc1cc2ncnc(Nc3ccc(Oc4ccccc4)cc3)c2cc1OC | Inhibitor of nuclear factor kappa-B kinase subunit alpha (Homo sapiens) | 101% |
| c1ccc2c(-c3ccncc3)c[nH]c2c1 | Inhibitor of nuclear factor kappa-B kinase subunit alpha (Homo sapiens) | 69% |
| CO[C@H]1C[C@@H]2CC[C@@H](C)[C@@](O)(O2)C(=O)C(=O)N2CCCC[C@H]2C(=O)O[C@H]([C@H](C)C[C@@H]2CC[C@@H](O)[C@H](OC)C2)CC(=O)[C@H](C)/C=C(\C)[C@@H](O)[C@@H](OC)C(=O)[C@H](C)C[C@H](C)/C=C/C=C/C=C/1C | Inhibitor of nuclear factor kappa-B kinase subunit alpha (Homo sapiens) | 148% |
| Oc1ccc(Nc2nc(-c3ccc(Cl)cc3)cs2)cc1 | Inhibitor of nuclear factor kappa-B kinase subunit alpha (Homo sapiens) | 134% |
| CCOc1cc2ncnc(Nc3cccc(Br)c3)c2cc1OCC | Inhibitor of nuclear factor kappa-B kinase subunit alpha (Homo sapiens) | 108% |
| O=C(O)c1ccc2c3c1cccc3c(=O)n1c3ccccc3nc21 | Inhibitor of nuclear factor kappa-B kinase subunit alpha (Homo sapiens) | 106% |
| C[C@@H](N)[C@H]1CC[C@H](C(=O)Nc2ccncc2)CC1 | Inhibitor of nuclear factor kappa-B kinase subunit alpha (Homo sapiens) | 64% |
| O=C1Nc2cc(Br)ccc2/C1=C1/Nc2ccccc2/C1=N\O | Inhibitor of nuclear factor kappa-B kinase subunit alpha (Homo sapiens) | 100% |
| N#C/C(=C(\N)Sc1ccc(N)cc1)c1ccccc1C(F)(F)F | Inhibitor of nuclear factor kappa-B kinase subunit alpha (Homo sapiens) | 121% |
| CC(C)n1cnc2c(NCc3ccccc3)nc(NCCCO)nc21 | Inhibitor of nuclear factor kappa-B kinase subunit alpha (Homo sapiens) | 104% |
| O=C1NC(=O)/C(=C/c2ccc3c(c2)OC(F)(F)O3)S1 | Inhibitor of nuclear factor kappa-B kinase subunit alpha (Homo sapiens) | 107% |
| Ic1cccc(CSc2nnc(-c3ccncc3)o2)c1 | Inhibitor of nuclear factor kappa-B kinase subunit alpha (Homo sapiens) | 72% |
| Nc1nc(Nc2ccc(S(N)(=O)=O)cc2)nn1C(=S)Nc1c(F)cccc1F | Inhibitor of nuclear factor kappa-B kinase subunit alpha (Homo sapiens) | 1% |
| Cc1cc(Nc2nc(-c3ccccc3)nc3ccccc23)n[nH]1 | Inhibitor of nuclear factor kappa-B kinase subunit alpha (Homo sapiens) | 72% |
| Cc1cc2ncc(-c3ccccc3)nc2cc1C | Inhibitor of nuclear factor kappa-B kinase subunit alpha (Homo sapiens) | 109% |
| O=C1NC(=O)c2c1c1c3ccccc3[nH]c1c1[nH]c3cc(Br)ccc3c21 | Inhibitor of nuclear factor kappa-B kinase subunit alpha (Homo sapiens) | 71% |
| COc1ccc(CNc2nc(N(CCO)CCO)nc3c2ncn3C(C)C)cc1 | Inhibitor of nuclear factor kappa-B kinase subunit alpha (Homo sapiens) | 102% |
| CN(C)CCCn1cc(C2=C(c3c[nH]c4ccccc34)C(=O)NC2=O)c2ccccc21 | Inhibitor of nuclear factor kappa-B kinase subunit alpha (Homo sapiens) | 58% |
| Cc1ccc(NC2=CC(=O)c3sc(C)nc3C2=O)cc1 | Inhibitor of nuclear factor kappa-B kinase subunit alpha (Homo sapiens) | 103% |
